Where do these numbers come from? They come from ChEMBL document CHEMBL1177681.

Tested on: Human immunodeficiency virus 1
Test Name: Antiviral activity against HIV1 with reverse transcriptase K103N mutant infected in human MT4 cells assessed as protection against virus-induced cytopathogenicity after 4 days by MTT assay
Type: functional, organism-based
Test Parameters: Human immunodeficiency virus 1, MT4, 96 h
Here, each record is paired with measured pEC50 data.
pEC50 is a log-scale quantity: -log10 of the concentration expressed in molar.

O=C1Nc2ccc(Cl)cc2[C@@](C#CC2CC2)(C(F)(F)F)O1 [EFAVIRENZ] ... 7.18

As a next step, examine the compound that follows.
Per the record, CC(C)Nc1cccnc1N1CCN(C(=O)c2cc3cc(NS(C)(=O)=O)ccc3[nH]2)CC1 [DELAVIRDINE] has pEC50 of 5.19

----------
Here, each record is paired with measured EC50 data.
Test system: Human immunodeficiency virus 1
Test Name: Antiviral activity against HIV1 with reverse transcriptase F227L, V106A mutant infected in human MT4 cells assessed as protection against virus-induced cytopathogenicity after 4 days by MTT assay
Format: functional, organism-based
Test Parameters: Human immunodeficiency virus 1, MT4, 96 h
Report the figure in nM without appending any unit label.

CC(C)Nc1cccnc1N1CCN(C(=O)c2cc3cc(NS(C)(=O)=O)ccc3[nH]2)CC1 ... 9850
COc1cc(C#N)cc(Cl)c1Oc1nc(Nc2ccc(C#N)cc2)nc2ccccc12 ... 467
Cc1cc(C#N)cc(C)c1Oc1nc(Nc2ccc(C#N)cc2)nc2ccccc12 ... 107

As a next step, examine the compound that follows.
Per the record, O=C1Nc2ccc(Cl)cc2[C@@](C#CC2CC2)(C(F)(F)F)O1 has EC50 of 104

----------
Here, each record is paired with measured CC50 at 96 h data.
Test Name: Cytotoxicity against human MT4 cells after 4 days by MTT assay
Assay type: cell-based
Report the figure in µM without appending any unit label.

Please review the entries below; each comes with its answer.
COc1cc(C#N)cc(OC)c1Oc1nc(Nc2ccc(C#N)cc2)nc2ccccc12 ... 194
Cc1cc(C#N)cc(C)c1Oc1nc(Nc2ccc(C#N)cc2)nc2ccccc12 ... 203
N#Cc1ccc(Nc2nc(Oc3ccccc3Cl)c3ccccc3n2)cc1 ... 38
COc1ccccc1Oc1nc(Nc2ccc(C#N)cc2)nc2ccccc12 ... 150
COc1cc(C#N)cc(Cl)c1Oc1nc(Nc2ccc(C#N)cc2)nc2ccccc12 ... 220
N#Cc1ccc(Nc2nc(Oc3c(Cl)cc(Cl)cc3Cl)c3ccccc3n2)cc1 ... 56

Per the record, Cc1cccc(C)c1Oc1nc(Nc2ccc(C#N)cc2)nc2ccccc12 has CC50 at 96 h of 35

----------
Test Name: Selectivity index, CC50 for human MT4 cells to EC50 for wild type HIV1 3B
Format: toxicity, cell-based
Test Parameters: read-out: Ratio CC50/EC50
Here, each record is paired with measured selectivity ratio data.
Reply briefly: the number, and no unit.

Please review the entries below; each comes with its answer.
COc1cc(C#N)cc(Cl)c1Oc1nc(Nc2ccc(C#N)cc2)nc2ccccc12 ... 46900
CCOc1cc(C#N)cc(OCC)c1Oc1nc(Nc2ccc(C#N)cc2)nc2ccccc12 ... 6770
COc1cc(C#N)ccc1Oc1nc(Nc2ccc(C#N)cc2)nc2ccccc12 ... 64200
COc1cc(C#N)cc(OC)c1Oc1nc(Nc2ccc(C#N)cc2)nc2ccccc12 ... 22000

Per the record, CCCOc1cc(C#N)cc(OC)c1Oc1nc(Nc2ccc(C#N)cc2)nc2ccccc12 has selectivity ratio of 408

Per the record, Cc1cccc(C)c1Oc1nc(Nc2ccc(C#N)cc2)nc2ccccc12 has selectivity ratio of 1510

Per the record, Cc1cc(Br)c(Oc2nc(Nc3ccc(C#N)cc3)nc3ccccc23)c(Br)c1 has selectivity ratio of 1280

Per the record, N#Cc1ccc(Nc2nc(Oc3c(Cl)cc(Cl)cc3Cl)c3ccccc3n2)cc1 has selectivity ratio of 2630
